Recorded relative viability for the following compounds
Tested on: PC-14
Experiment: relative viability (nuclei count vs DMSO), 5 days (fraction); higher = more cells survive
Conditions: first compound 0.05 µM

{"columns": ["Compound", "Target of assay", "relative viability"],
 "data": [
  ["CC1(C)CCC(c2ccc(Cl)cc2)=C(CN2CCN(c3ccc(C(=O)NS(=O)(=O)c4ccc(N[C@H](CCN5CCOCC5)CSc5ccccc5)c(S(=O)(=O)C(F)(F)F)c4)cc3)CC2)C1 [Navitoclax] + CC(=O)Nc1cccc(-n2c(=O)n(C3CC3)c(=O)c3c(Nc4ccc(I)cc4F)n(C)c(=O)c(C)c32)c1 [Trametinib] (partner 0.02 µM)", "PC-14", 0.808],
  ["CC1(C)CCC(c2ccc(Cl)cc2)=C(CN2CCN(c3ccc(C(=O)NS(=O)(=O)c4ccc(N[C@H](CCN5CCOCC5)CSc5ccccc5)c(S(=O)(=O)C(F)(F)F)c4)cc3)CC2)C1 [Navitoclax] + Nc1ncn([C@H]2C[C@H](O)[C@@H](CO)O2)c(=O)n1 [Decitabine] (partner 2 µM)", "PC-14", 0.228]
]}

====

Tested on: HCC-827
Assay: relative viability (nuclei count vs DMSO), 5 days (fraction); higher = more cells survive
Settings: first compound 0.8 µM

{"columns": ["Molecule", "relative viability"],
 "data": [
  ["Oc1nc(-c2ccc(C(F)(F)F)cc2)nc2c1CSCC2 [XAV939] + COc1cc2c(Oc3ccc(NC(=O)C4(C(=O)Nc5ccc(F)cc5)CC4)cc3F)ccnc2cc1OCCCN1CCOCC1 [Foretinib] (partner 0.25 µM)", 1.06],
  ["Oc1nc(-c2ccc(C(F)(F)F)cc2)nc2c1CSCC2 [XAV939] + O=C(c1cc(Cc2n[nH]c(=O)c3ccccc23)ccc1F)N1CCN(C(=O)C2CC2)CC1 [Olaparib] (partner 8 µM)", 0.62],
  ["C=C1C(=O)O[C@@H](CCCCCCCC)[C@@H]1C(=O)O [C-75] + Nc1nc2[nH]cc(CCc3ccc(C(=O)N[C@@H](CCC(=O)O)C(=O)O)cc3)c2c(=O)[nH]1 [Pemetrexed] (partner 0.2 µM)", 0.279],
  ["C=C1C(=O)O[C@@H](CCCCCCCC)[C@@H]1C(=O)O [C-75] + CS(=O)(=O)N1CCN(Cc2cc3nc(-c4cccc5[nH]ncc45)nc(N4CCOCC4)c3s2)CC1 [Pictilisib] (partner 1 µM)", 1.14],
  ["C=C1C(=O)O[C@@H](CCCCCCCC)[C@@H]1C(=O)O [C-75] + Cc1nc(Nc2ncc(C(=O)Nc3c(C)cccc3Cl)s2)cc(N2CCN(CCO)CC2)n1 [Dasatinib] (partner 0.075 µM)", 0.301],
  ["C=C1C(=O)O[C@@H](CCCCCCCC)[C@@H]1C(=O)O [C-75] + COc1cc2c(Oc3ccc(NC(=O)C4(C(=O)Nc5ccc(F)cc5)CC4)cc3F)ccnc2cc1OCCCN1CCOCC1 [Foretinib] (partner 0.25 µM)", 1.04],
  ["C=C1C(=O)O[C@@H](CCCCCCCC)[C@@H]1C(=O)O [C-75] + CS(=O)(=O)CCNCc1ccc(-c2ccc3ncnc(Nc4ccc(OCc5cccc(F)c5)c(Cl)c4)c3c2)o1 [Lapatinib] (partner 2 µM)", 0.212],
  ["C=C1C(=O)O[C@@H](CCCCCCCC)[C@@H]1C(=O)O [C-75] + Nc1ncn([C@H]2C[C@H](O)[C@@H](CO)O2)c(=O)n1 [Decitabine] (partner 2 µM)", 0.277],
  ["C=C1C(=O)O[C@@H](CCCCCCCC)[C@@H]1C(=O)O [C-75] + CC(=O)c1c(C)c2cnc(Nc3ccc(N4CCNCC4)cn3)nc2n(C2CCCC2)c1=O [Palbociclib] (partner 0.5 µM)", 0.5],
  ["Oc1nc(-c2ccc(C(F)(F)F)cc2)nc2c1CSCC2 [XAV939] + Cc1cc(Nc2cc(N3CCN(C)CC3)nc(Sc3ccc(NC(=O)C4CC4)cc3)n2)n[nH]1 [Tozasertib] (partner 0.1 µM)", 0.414]
]}

====

Recorded relative viability for the following molecules
System: EPLC-272H
Experiment: relative viability (nuclei count vs DMSO), 5 days (fraction); higher = more cells survive
Details: first compound 8 µM

{"columns": ["Molecule", "Target of assay", "relative viability"],
 "data": [
  ["C=C1C(=O)O[C@@H](CCCCCCCC)[C@@H]1C(=O)O [C-75] + CS(=O)(=O)N1CCN(Cc2cc3nc(-c4cccc5[nH]ncc45)nc(N4CCOCC4)c3s2)CC1 [Pictilisib] (partner 1 µM)", "EPLC-272H", 0.232],
  ["C=C1C(=O)O[C@@H](CCCCCCCC)[C@@H]1C(=O)O [C-75] + COc1cccc2cc(-c3nc([C@H]4CC[C@H](C(=O)O)CC4)n4ncnc(N)c34)[nH]c12 [OSI-027] (partner 0.5 µM)", "EPLC-272H", 0.235],
  ["C=C1C(=O)O[C@@H](CCCCCCCC)[C@@H]1C(=O)O [C-75] + CS(=O)(=O)CCNCc1ccc(-c2ccc3ncnc(Nc4ccc(OCc5cccc(F)c5)c(Cl)c4)c3c2)o1 [Lapatinib] (partner 2 µM)", "EPLC-272H", 0.789]
]}

====

System: LOU-NH91
Assay: relative viability (nuclei count vs DMSO), 5 days (fraction); higher = more cells survive
Conditions: first compound 0.8 µM

{"columns": ["Molecule", "relative viability"],
 "data": [
  ["C=C1C(=O)O[C@@H](CCCCCCCC)[C@@H]1C(=O)O [C-75] + CS(=O)(=O)N1CCN(Cc2cc3nc(-c4cccc5[nH]ncc45)nc(N4CCOCC4)c3s2)CC1 [Pictilisib] (partner 1 µM)", 0.446],
  ["Oc1nc(-c2ccc(C(F)(F)F)cc2)nc2c1CSCC2 [XAV939] + CC1(C)CCC(c2ccc(Cl)cc2)=C(CN2CCN(c3ccc(C(=O)NS(=O)(=O)c4ccc(N[C@H](CCN5CCOCC5)CSc5ccccc5)c(S(=O)(=O)C(F)(F)F)c4)cc3)CC2)C1 [Navitoclax] (partner 0.5 µM)", 0.692],
  ["Oc1nc(-c2ccc(C(F)(F)F)cc2)nc2c1CSCC2 [XAV939] + Nc1ncn([C@H]2C[C@H](O)[C@@H](CO)O2)c(=O)n1 [Decitabine] (partner 2 µM)", 0.819],
  ["C=C1C(=O)O[C@@H](CCCCCCCC)[C@@H]1C(=O)O [C-75] + CC(=O)Nc1cccc(-n2c(=O)n(C3CC3)c(=O)c3c(Nc4ccc(I)cc4F)n(C)c(=O)c(C)c32)c1 [Trametinib] (partner 0.02 µM)", 0.762]
]}

====

Test system: ABC-1
Experiment: relative viability (nuclei count vs DMSO), 5 days (fraction); higher = more cells survive
Conditions: first compound 0.253 µM
Recorded relative viability for the following compounds
Metric: relative viability

{"columns": ["Compound", "Metric", "Readout number"],
 "data": [
  ["C=C1C(=O)O[C@@H](CCCCCCCC)[C@@H]1C(=O)O [C-75] + CS(=O)(=O)N1CCN(Cc2cc3nc(-c4cccc5[nH]ncc45)nc(N4CCOCC4)c3s2)CC1 [Pictilisib] (partner 1 µM)", "relative viability", 0.87],
  ["C=C1C(=O)O[C@@H](CCCCCCCC)[C@@H]1C(=O)O [C-75] + Nc1ncn([C@H]2C[C@H](O)[C@@H](CO)O2)c(=O)n1 [Decitabine] (partner 2 µM)", "relative viability", 1.18],
  ["C=C1C(=O)O[C@@H](CCCCCCCC)[C@@H]1C(=O)O [C-75] + COc1cc2c(Oc3ccc(NC(=O)C4(C(=O)Nc5ccc(F)cc5)CC4)cc3F)ccnc2cc1OCCCN1CCOCC1 [Foretinib] (partner 0.25 µM)", "relative viability", 1.24],
  ["C=C1C(=O)O[C@@H](CCCCCCCC)[C@@H]1C(=O)O [C-75] + C[C@]1(O)C[C@@H](c2nc(-c3ccc4ccc(-c5ccccc5)nc4c3)c3c(N)nccn32)C1 [Linsitinib] (partner 1 µM)", "relative viability", 0.854],
  ["C=C1C(=O)O[C@@H](CCCCCCCC)[C@@H]1C(=O)O [C-75] + C[C@@H](Oc1cc(-c2cnn(C3CCNCC3)c2)cnc1N)c1c(Cl)ccc(F)c1Cl [Crizotinib] (partner 1 µM)", "relative viability", 1.81]
]}

====

Recorded relative viability for the following compounds
System: NCI-H1666
Test: relative viability (nuclei count vs DMSO), 5 days (fraction); higher = more cells survive
Conditions: first compound 0.03162 µM
Metric: relative viability

{"columns": ["Compound", "Target of assay", "Readout number"],
 "data": [
  ["NC(=O)Nc1cc(-c2cccc(F)c2)sc1C(=O)N[C@H]1CCCNC1 [AZD7762] + CC1(C)CCC(c2ccc(Cl)cc2)=C(CN2CCN(c3ccc(C(=O)NS(=O)(=O)c4ccc(N[C@H](CCN5CCOCC5)CSc5ccccc5)c(S(=O)(=O)C(F)(F)F)c4)cc3)CC2)C1 [Navitoclax] (partner 0.5 µM)", "NCI-H1666", 1.36],
  ["NC(=O)Nc1cc(-c2cccc(F)c2)sc1C(=O)N[C@H]1CCCNC1 [AZD7762] + COc1cc2c(Oc3ccc(NC(=O)C4(C(=O)Nc5ccc(F)cc5)CC4)cc3F)ccnc2cc1OCCCN1CCOCC1 [Foretinib] (partner 0.25 µM)", "NCI-H1666", 1.07],
  ["NC(=O)Nc1cc(-c2cccc(F)c2)sc1C(=O)N[C@H]1CCCNC1 [AZD7762] + C[C@@H](Oc1cc(-c2cnn(C3CCNCC3)c2)cnc1N)c1c(Cl)ccc(F)c1Cl [Crizotinib] (partner 1 µM)", "NCI-H1666", 1.16],
  ["NC(=O)Nc1cc(-c2cccc(F)c2)sc1C(=O)N[C@H]1CCCNC1 [AZD7762] + O=C(CCCCCCC(=O)Nc1ccccc1)NO [Vorinostat] (partner 1 µM)", "NCI-H1666", 1.17]
]}
